test system: primary kidney tumor cells (TF); assay: Cell viability, primary kidney tumor cells TF; type: cell-based; details: CXCR1+/CXCR2+
pIC50: −log10 of the molar value.
Measured parameter: pIC50

Compound | Number
O=C(Nc1cccc(Cl)c1)Nc1nc2ccc([N+](=O)[O-])cc2s1 [C29] | 5.49

###

test system: CAL27; experiment: XTT cell viability assay, CAL27 HNSCC cells; assay type: cell-based, human; conditions: Homo sapiens, CAL-27; XTT assay, 48 h; SD 10%; mean of three experiments; read-out: IC50 27 (HNSCC)
pIC50: −log10 of the molar value.
Overview of recorded pIC50 for various compounds

Smiles repr | pIC50
O=C(Nc1ccccc1)Nc1nc2ccccc2s1 | < 4.60
O=C(Nc1cccc(Cl)c1)Nc1ccc(Cl)cc1Cl | 4.82
CCOc1ccc2nc(NC(=O)Nc3ccc(C)cc3)sc2c1 | < 4.60
CCOc1ccc2nc(NC(=O)Nc3cccc(C)c3)sc2c1 | < 4.60
S=C(Nc1ccccc1)Nc1ccc(Cl)cc1Cl | < 4.60
S=C(Nc1ccccc1)Nc1nc2ccccc2o1 | < 4.60
O=C(Nc1ccc(Cl)cc1)Nc1ccc(Cl)cc1Cl | 4.60
O=C(Nc1ccc(Cl)cc1)Nc1ccccc1O | 4.92
O=C(Nc1cccc(Cl)c1)Nc1ccccc1O | < 4.60
O=C(Nc1ccc(Cl)cc1)Nc1nc2ccccc2[nH]1 | 4.82
CCOc1ccc2nc(NC(=O)Nc3ccccc3C)sc2c1 | 5.30
O=C(Nc1cccc(Cl)c1)Nc1nc2ccc([N+](=O)[O-])cc2s1 | 5.60
O=C(Nc1ccc(Cl)cc1)Nc1nc2ccccc2s1 | < 4.60
COc1ccc(NC(=O)Nc2nc3ccccc3[nH]2)cc1 | < 4.60
O=C(Nc1nc2ccccc2[nH]1)Nc1ccccc1Cl | < 4.60
COc1ccc(NC(=O)Nc2nc3ccccc3s2)cc1 | < 4.60
CCOc1ccc2nc(NC(=O)Nc3ccc(OC)cc3)sc2c1 | < 4.60
Cc1ccc(NC(=O)Nc2cccc(Cl)c2)cc1 | < 4.60
O=C(Nc1cccc(Cl)c1)Nc1cccc(Cl)c1 | 4.92
Cc1ccc2nc(NC(=O)Nc3ccccc3Cl)sc2c1 | 5.30
O=C(Nc1cccc(Cl)c1)Nc1nc2ccccc2[nH]1 | < 4.60
O=C(Nc1nc2ccc([N+](=O)[O-])cc2s1)Nc1ccccc1Cl | 5.15
O=C(Nc1nc2ccccc2s1)Nc1ccccc1Cl | < 4.60
Cc1cccc(NC(=O)Nc2nc3ccc(C)cc3s2)c1 | < 4.60

###

assay: Pharmacokinetic parameters after oral administration; format: in vivo; details: mouse, plasma; CD-1 mice, oral gavage 50 mg/kg

Smiles repr | AUC
O=C(Nc1cccc(Cl)c1)Nc1nc2ccc([N+](=O)[O-])cc2s1 | ~1420 ng·h/mL

###

system: OCI-AML2; test: XTT cell viability assay, OCI-AML2 AML cells; assay type: cell-based, human; settings: 48 h, SD 10%, mean of three experiments, read-out: IC50 L2 (AML)
pIC50: −log10 of the molar value.

Compound | System under test | pIC50
O=C(Nc1ccc([N+](=O)[O-])cc1O)Nc1ccccc1Br [SB225002, reference compound] | OCI-AML2 | < 4.00

###

system: CAL27; test: XTT cell viability assay, CAL27 HNSCC cells; assay type: cell-based, human; settings: Homo sapiens, CAL-27; CXCR1+/CXCR2+; read-out: IC50 CAL27

Molecule | System under test | IC50 [µM]
O=C(Nc1cccc(Cl)c1)Nc1nc2ccc([N+](=O)[O-])cc2s1 [C29] | CAL27 | 2.5

###

assay: Pharmacokinetic parameters after oral administration; assay type: in vivo; details: mouse, plasma; CD-1 mice, oral gavage 50 mg/kg

Smiles repr | Tmax / min
O=C(Nc1cccc(Cl)c1)Nc1nc2ccc([N+](=O)[O-])cc2s1 | 30

###

assay: Pharmacokinetic parameters after oral administration; assay type: in vivo; details: CD-1, mouse, plasma, po, 50 mg/kg, CD-1 mice, oral gavage 50 mg/kg, formulated at 7.6 mg/mL; read-out: half-life (t ½)
Measured parameter: half-life (h)

Smiles repr | Number
O=C(Nc1cccc(Cl)c1)Nc1nc2ccc([N+](=O)[O-])cc2s1 | 3.17

###

system: primary normal kidney cells (15S); assay: Cell viability, primary normal kidney cells; type: cell-based; conditions: CXCR1-/CXCR2-; normal primary kidney cells
pIC50: −log10 of the molar value.
Measured parameter: pIC50

Compound | Number
O=C(Nc1cccc(Cl)c1)Nc1nc2ccc([N+](=O)[O-])cc2s1 [C29] | 4.90

###

tested on: 786-O; assay: XTT cell viability assay, 786-O RCC cells; type: cell-based, human; conditions: Homo sapiens, 786-0; CXCR1+/CXCR2+; read-out: IC50 786-O
Measured parameter: IC50 (nM)

Compound | Measured parameter | Number
O=C(Nc1cccc(Cl)c1)Nc1nc2ccc([N+](=O)[O-])cc2s1 [C29] | IC50 | 2000

###

tested on: Molm14; assay: XTT cell viability assay, Molm14 AML cells; type: cell-based, human; details: 48 h, SD 10%, mean of three experiments, read-out: IC50 14 (AML)
pIC50: −log10 of the molar value.
Measured parameter: pIC50

Molecule | Number
O=C(Nc1ccc([N+](=O)[O-])cc1O)Nc1ccccc1Br [SB225002, reference compound] | 4.05

###

experiment: Pharmacokinetic parameters after oral administration; assay type: in vivo; conditions: mouse, plasma; CD-1 mice, oral gavage 50 mg/kg; read-out: AUC last PO (converted)
Measured parameter: AUC(0-t) (µg·h/mL)

Smiles repr | Quantity unit | Number
O=C(Nc1cccc(Cl)c1)Nc1nc2ccc([N+](=O)[O-])cc2s1 | µg·h/mL | 1.42
